Target: UniProtKB P62993
Assay: Binding affinity to recombinant Grb2 SH2 domain by surface plasmon resonance analysis
pIC50: −log10 of the molar value. Starred links: 1 amine or outer side, 2 acyl side, 3 side chain; linkers in the order of their positions; H or OH if unused. Positions of bridges follow the written chain, without caps; N, C: chain ends. Non-standard residues stand in square brackets, D forms with d. Residues, ends and D or L forms follow the SMILES beside them. *: point of attachment. Cys(CH2CO)(S-oxide,Ss) = O=C([C@H](C[S@+]([O-])CC(=O)[*:3])N[*:1])[*:2]; X1 = O=C(O)CCc1cc(C[C@H](N[*:1])C(=O)[*:2])ccc1O; Tyr(3-NH2) = Nc1cc(C[C@H](N)C(=O)O)ccc1O; X2 = C[C@](CCCC(=O)O)(N[*:1])C(=O)[*:2]; Gla = N[C@@H](CC(C(=O)O)C(=O)O)C(=O)O; Fmoc = O=C(OCC1c2ccccc2-c2ccccc21)*; αMehGlu = C[C@](N)(CCCC(=O)O)C(=O)O; αMeE = C[C@](N)(CCC(=O)O)C(=O)O; Aad = N[C@@H](CCCC(=O)O)C(=O)O; αMeD = C[C@](N)(CC(=O)O)C(=O)O; Ac6c = NC1(C(=O)O)CCCCC1; Ava = NCCCCC(=O)O
ASSAY_METRIC: pIC50

Some compounds with recorded pIC50:
COMPOUND | TARGET | pIC50
CC(C)C[C@@H]1NC(=O)[C@H](CCCC(=O)O)NC(=O)C[S@@+]([O-])C[C@@H](C(N)=O)NC(=O)CCCCNC(=O)[C@H](CC(N)=O)NC(=O)[C@](C)(CC(=O)O)NC(=O)[C@H](Cc2ccc(O)cc2)NC1=O ([Aad]LY[αMeD]N[Ava][Cys(CH2CO)(S-oxide,Ss)]-NH2; lactam N-7) | UniProtKB P62993 | 4.52
CC(C)C[C@H](NC(=O)[C@@H](N)CC(C(=O)O)C(=O)O)C(=O)N[C@@H](Cc1ccc(O)c(N)c1)C(=O)N[C@@](C)(CCC(=O)O)C(=O)N[C@@H](CC(N)=O)C(N)=O (H-[Gla]L[Tyr(3-NH2)][αMeE]N-NH2) | UniProtKB P62993 | 4.72
CC(C)C[C@@H]1NC(=O)[C@H](CCCC(=O)O)NC(=O)C[S@@+]([O-])C[C@@H](C(N)=O)NC(=O)CCCCNC(=O)[C@H](CC(N)=O)NC(=O)[C@](C)(CCCC(=O)O)NC(=O)[C@H](Cc2ccc(O)cc2)NC1=O ([Aad]LY[αMehGlu]N[Ava][Cys(CH2CO)(S-oxide,Ss)]-NH2; lactam N-7) | UniProtKB P62993 | 4.77

(I) CC(C)C[C@@H]1NC(=O)[C@H](CCCC(=O)O)NC(=O)CSC[C@@H](C(N)=O)NC(=O)CCCCNC(=O)[C@H](CC(N)=O)NC(=O)[C@](C)(CCCC(=O)O)NC(=O)[C@H](Cc2ccc(O)cc2)NC1=O ({CH2CO}-[Aad]LY[αMehGlu]N[Ava]C-NH2; thioether N-7)
(II) CC(C)C[C@H](NC(=O)[C@H](CCCC(=O)O)NC(=O)OCC1c2ccccc2-c2ccccc21)C(=O)N[C@@H](Cc1ccc(O)c(N)c1)C(=O)NC1(C(=O)N[C@@H](CC(N)=O)C(N)=O)CCCCC1 (Fmoc-[Aad]L[Tyr(3-NH2)][Ac6c]N-NH2)
(III) CC(C)C[C@H](NC(=O)[C@@](C)(CCCC(=O)O)NC(=O)OCC1c2ccccc2-c2ccccc21)C(=O)N[C@@H](Cc1ccc(O)c(N)c1)C(=O)NC1(C(=O)N[C@@H](CC(N)=O)C(N)=O)CCCCC1 (Fmoc-[X2]L[Tyr(3-NH2)][Ac6c]N-NH2)
Ascending by pIC50, please: list the compounds accordingly. I would appreciate it if you listed the labels in the requested order.
III, I, II

(1) CC(C)C[C@@H]1NC(=O)[C@H](CCCC(=O)O)NC(=O)CSC[C@@H](C(N)=O)NC(=O)CCCCNC(=O)[C@H](CC(N)=O)NC(=O)[C@](C)(CCC(=O)O)NC(=O)[C@H](Cc2ccc(O)cc2)NC1=O
(2) CC(C)C[C@H](NC(=O)[C@H](CCCC(=O)O)NC(=O)OCC1c2ccccc2-c2ccccc21)C(=O)N[C@@H](Cc1ccc(O)c(CCC(=O)O)c1)C(=O)N[C@@](C)(CCC(=O)O)C(=O)N[C@@H](CC(N)=O)C(N)=O (Fmoc-[Aad]L[X1][αMeE]N-NH2)
In terms of reported pIC50, does 1 or 2 have the smaller number? When you have decided, please share the label of that item.
1

Measured values drawn from ChEMBL document CHEMBL1140171 for this set.
